Read-out: CYP2E1 (gene 1571)
Assay: LTEA_HepaRG_CYP2E1: Life Technologies and Expression Analysis (LTEA) Assay for CYP2E1 using HepaRG (AID 2283485)
Conditions: mRNA level, 48 h; actives raise or lower the signal
Activity calls are given as the source filed them. Rule for the calls: active = hit-call score of the fitted dose curve at least 0.9, where 1 is the maximum; inactive = score below 0.9.
Measured Quantity: AC50

{"columns": ["Molecule", "AC50"],
 "data": [
  ["CCC(C)N(C)C(=O)c1cc2ccccc2c(-c2ccccc2Cl)n1 (stereo not given)", "14.1 µM (active)"],
  ["Cc1ccc(-c2cc(C(F)(F)F)nn2-c2ccc(S(N)(=O)=O)cc2)cc1", "38.2 µM (active)"],
  ["O=C1O[C@H]([C@H](O)CO)C(O)=C1O", "inactive"],
  ["CC(=O)OCC(COC(C)=O)OC(C)=O", "inactive"],
  ["CCCCC(CC)CO (stereo not given)", "inactive"],
  ["CCCCC(CC)COP(=O)(OCC(CC)CCCC)OCC(CC)CCCC (stereo not given)", "19.3 µM (active)"],
  ["S=c1[nH]c2ccccc2s1", "inactive"],
  ["CCCC[C@H]1CN(CC2CCOCC2)C(=O)OC12CCN(C1(C)CCN(C(=O)c3c(C)ncnc3C)CC1)CC2", "inactive"]
]}

Prompt line: Suppose we examine the molecule `OCC(O)CO` ; what AC50 value has been reported?
Response line: inactive

Prompt line: Suppose we examine the molecule `Oc1ccc(O)cc1` ; what AC50 value has been reported?
Response line: inactive

Prompt line: Suppose we examine the molecule `C/C=C/C=C/C(=O)O` ; what AC50 value has been reported?
Response line: inactive

Prompt line: Suppose we examine the molecule `Cc1cc(Cc2ccc(N)c(C)c2)ccc1N` ; what AC50 value has been reported?
Response line: 24.6 µM (active)

Prompt line: Suppose we examine the molecule `CCCCOC(=O)CCCCC(=O)OCCCC` ; what AC50 value has been reported?
Response line: inactive

Prompt line: Suppose we examine the molecule `CCCC(=O)O` ; what AC50 value has been reported?
Response line: inactive

Prompt line: Suppose we examine the molecule `CC(C)COC(=O)CCCCC(=O)OCC(C)C` ; what AC50 value has been reported?
Response line: inactive

Prompt line: Suppose we examine the molecule `COC(=O)CCCC(=O)OC` ; what AC50 value has been reported?
Response line: inactive

Prompt line: Suppose we examine the molecule CC(=O)CC(c1ccccc1)c1c(O)c2ccccc2oc1=O (stereo not given) ; what AC50 value has been reported?
Response line: 73.8 µM (active)

Just for reference, PubChem BioAssay (EPA / NIEHS) is where these values come from.
